Tested on: HCT-15 colon
method: NCI-60 one-dose screen, 48 h
details: 10 µM
This is part of a sample that, as a whole, favours compounds with a hit. Of some 83,000 tested, about 20% had one in any assay. Activity calls are given as the source filed them. How the source made its calls: active means growth percent below 10; inactive means the rest.
Bench note: report the call from 1 = active, -1 = inactive

Query :: Recorded call for "NS(=O)(=O)c1ccc(NC(=O)CSc2ccc(-c3ccccc3)nn2)c(Br)c1" ?
Result :: -1

Query :: Recorded call for "N#Cc1c(NC(=O)c2cccc(C(F)(F)F)c2)sc2c1CCC(O)=C2" ?
Result :: -1

Query :: Recorded call for "COc1cnc2c(c1)C(=O)c1c-2n(CCCNCCO)c(=O)c2cc(OC)c(OC)cc12" ?
Result :: -1

Query :: Recorded call for "COc1ccc(Nc2nc(N)n(Cc3cccc(Br)c3)n2)cc1" ?
Result :: 1

These measurements were taken from PubChem BioAssay (NCI).
